biological target: RSV F protein of subtype A strain A2, on virus (respiratory syncytial virus subtype A …, UniProt P03420 26-574); experiment: cell-based or functional assay
quantity-measured: Neut IC50 (ug/ml) subtype A

Example results:
| binder | data-value |
| --- | --- |
| ADI-15596 (antibody, V domains shown, IgG) VH: EVQLVESGGALVKPGGSLRLSCVGTGLTFTTAYMSWARQAPGKGLEWVGRILSKSDGGTTDYPTPVKGRFTISRDESKNTLYLQMNSLKIEDTAVYYCTTDRGITARPIFDSWGQGTLVTVSS VL: QSVLTQPPSVSGALGRRVTISCTGSSSNIGAGYDVHWYRQLPGTAPKLLIYGNTKRPSGVPDRFSGSKYATSASLAITGLQADDDADYYCQSYDGGLSGYVFGTGTKVTVL | 4.48 µg/mL |
| ADI-15574 (antibody, V domains shown, IgG; also called Antibody Number 144) VH: QVQLVQSGGGLVKPGGSLRLSCAASGFTISGYNMFWVRQPPGKGLEWVSSITAGSSYLNYADSVKGRFIVSRDNAKNSLYLQMNSLRAEDTAVYFCARAPLLPAMMDLWGQGTTVTVSS VL: QSVLTQPPSVSGAPGQRVTISCTGSSSNIGAGYDVHWYQQLPGTAPKLLIYTNNNRPSGVPDRFSGSKSGTSASLAITGLQAEDEADYYCQSYDRSLNGYVFGTGTKLTVL | 0.176 µg/mL |

Value sought for every listed binder: Neut IC50 (ug/ml) subtype A.
1. ADI-15632 (antibody, V domains shown, IgG; also called Antibody Number 197) VH: QVQLVQSGGGLVQPGRSLRLSCTASGFSFSDYGVTWVRQAPGKGLEWIGFVRTKGYGGTTEYAASVRGRFTISRDDSKSVAYLQLNSLKVEDTAVYYCSGASRGFWSGPTYYYFGMDVWGHGTTVTVSS VL: EIVLTQSPLSLAVTPGEPASISCRSSQSLLHGNGYNYLDWYLQKPGQSPQLLIFWGSYRASGAPDRFSASGSGSEFTLKIRRVEAEDVGVYYCMQPLQTTFGQGTKVDIK
2. ADI-15638 (antibody, V domains shown, IgG) VH: EVQLVESGGGLVKPGGSLRLSCAASGFTITSYGMNWVRQAPGKGLEWVSSISSSSSFIHYGDSVKGRFTISRDNAKNSLYLQMNSLRAGDTAVYYCVRDSGHQDYRGDYWGQGTLVTVSS VL: QSVVTQPPSVSGAPGQRVSISCTGSSSNIGAGYDVHWYQQLPGTAPKLLIYTNNNRPSGVPDRFSGSKSGTSASLAINGLQAEDEADYYCQSYDRSLSGWVFGGGTKLTVL

stdout:
1: 1.42 µg/mL; 2: 0.178 µg/mL

Value sought for every listed binder: Neut IC50 (ug/ml) subtype A.
1. ADI-15618 (antibody, V domains shown, IgG) VH: EVQLVETGGGLIQPGGSLRLSCVASGFSLRNYALGWLRQAPGKGLEWVSGGYYGDVYYTDSVKGRFAVSRDNSGDTVYLEMDNLRVEDTAVYYCARMETVTTDAGSGWDWYFEVWGRGTLVTVSS VL: ETTLTQSPATLSLSPGDWATLSCRASQSVGTYLAWYQHKPGQAPRLLIHDASNRASDIPSRFSGSGSGTDFTLTIRGLEPEDFAVYYCQQHRDWRPVTFGGGTKVEIK
2. ADI-15637 (antibody, V domains shown, IgG; also called Antibody Number 202) VH: QVQLVQSGAEVTKPGASVRVSCKFSAYTLSALSIHWVRQAPGKGLEWMGAFDPEDGEPIYSQHFQGRVTMTEDTSTQTAYMELNSLRSEDTAVYYCSSVGPAGWFDPWGQGTLVTVSS VL: DIRLTQSPSSLSASVGDRVSITCRASQSISSYLHWYQQKPGKAPKLLIYAASSLQSGVPSRFSGSGSGSDFTLTISSLQPEDFATYYCHQSYIPPFTFGPGTKLEIK

stdout:
1: 0.003 µg/mL; 2: 0.357 µg/mL
